Below are IC50 values measured for mouse Smoothened receptor (Mus musculus, UniProt P56726).

Below, 10 compounds whose answers are already recorded.
{"COMPOUND": "N#Cc1ccc(C2CCN(c3nnc(Cc4ccccc4)c4ccccc34)CC2)cc1 [Example 116]", "TARGET_UNDER_TEST": "mouse Smoothened receptor (Mus musculus, UniProt P56726)", "VALUE": "1000 to 10000 nM"}
{"COMPOUND": "CCN(CCO)C(=O)c1ccc(N2CCN(c3nnc(Cc4ccccc4)c4ccccc34)CC2)nc1 [Example 54d]", "TARGET_UNDER_TEST": "mouse Smoothened receptor (Mus musculus, UniProt P56726)", "VALUE": "< 100 nM"}
{"COMPOUND": "FC(F)(F)c1ccc(N2CCN(c3nnc(Cc4ccccc4)c4ccoc34)CC2)nc1 [Example 246]", "TARGET_UNDER_TEST": "mouse Smoothened receptor (Mus musculus, UniProt P56726)", "VALUE": "10000 to 40000 nM"}
{"COMPOUND": "Cc1ccnc(N2CCCN(c3nnc(Cc4ccccc4)c4ccccc34)CC2)n1 [Example 41]", "TARGET_UNDER_TEST": "mouse Smoothened receptor (Mus musculus, UniProt P56726)", "VALUE": "100 to 1000 nM"}
{"COMPOUND": "Clc1ccc(N2CCN(c3nnc(Cc4ccccc4)c4ccccc34)CC2)cc1Cl [Example 30]", "TARGET_UNDER_TEST": "mouse Smoothened receptor (Mus musculus, UniProt P56726)", "VALUE": "1000 to 10000 nM"}
{"COMPOUND": "COc1ccccc1Cc1nnc(N2CCN(c3ccc(C#N)cn3)CC2)c2ccccc12 [Example 175]", "TARGET_UNDER_TEST": "mouse Smoothened receptor (Mus musculus, UniProt P56726)", "VALUE": "100 to 1000 nM"}
{"COMPOUND": "CN(CCCO)C(=O)c1ccc(N2CCN(c3nnc(Cc4ccccc4)c4ccccc34)CC2)nc1 [Example 54t]", "TARGET_UNDER_TEST": "mouse Smoothened receptor (Mus musculus, UniProt P56726)", "VALUE": "< 100 nM"}
{"COMPOUND": "O=C(NC1CN(C(=O)OCc2ccccc2)C1)c1ccc(N2CCN(c3nnc(Cc4ccccc4)c4ccccc34)CC2)nc1 [Example 54x]", "TARGET_UNDER_TEST": "mouse Smoothened receptor (Mus musculus, UniProt P56726)", "VALUE": "100 to 1000 nM"}
{"COMPOUND": "CC(C)(O)CNC(=O)c1ccc(N2CCN(c3nnc(Cc4ccccc4)c4ccccc34)CC2)nc1 [Example 54u]", "TARGET_UNDER_TEST": "mouse Smoothened receptor (Mus musculus, UniProt P56726)", "VALUE": "< 100 nM"}
{"COMPOUND": "COC(=O)c1cnc(N2CCN(c3nnc(Cc4ccccc4)c4ccccc34)CC2)cc1C(F)(F)F [Example 136]", "TARGET_UNDER_TEST": "mouse Smoothened receptor (Mus musculus, UniProt P56726)", "VALUE": "< 100 nM"}

Could you tell me which IC50 is on file for CC(C)CC(=O)NCc1ccc(N2CCN(c3nnc(Cc4ccccc4)c4ccccc34)CC2)nc1 [Example 210] ? < 100 nM

Also COCC(=O)NCc1ccc(N2CCN(c3nnc(Cc4ccccc4)c4ccccc34)CC2)nc1 [Example 208] , if possible. 100 to 1000 nM
